test: soluble fraction after stress (log2 fold change); higher = more stays soluble; pooled small domains, quantitative proteomics; conditions: stress: 50 degC
Measured attribute: soluble fraction (log2)
Field format: numeric only.

# count of solved cases: 3
* HMLINPLDILRNFNLSLYDDSRDSASNKEIDEIFESIKTNNSHIFSTLKAYRIPLPIASLIIKKIIKITLE | -0.534
* HMSGPFTELTPREREILSHLAEGQSNKVIARHLQISDGTVKLHVKAILRKLEVHSRVEAAVMAVEHGV | -1.96
* HMSDRFLDQEGVALSTLRPSGTVVLDSGEHLDVVTRGEFIEQGERVKVIKAESTWYVVEQIN | -0.268

Switching to the query record.
Fill in: soluble fraction (log2) of "HMKEGGGYGQLRLKEAAIQHAFDLQNALQFIAERGYQAHENTTLKEAANALNLKPIELLELLKSSQ" is ___
0.281

====

assay: soluble fraction after stress (log2 fold change); higher = more stays soluble; pooled small domains, quantitative proteomics; settings: stress: 50 degC
Measured attribute: soluble fraction (log2)
API doc: respond with a numeric literal and nothing else, no unit.

Sample answers from the record:
• HMGTTMLEVPNFVGEVFKEIDPEKYPNLRLVDSDYTYSNEYEAGKVISQDPVARTQVAEGSTVKLVIS = 0.133
• HMDQTKYDAIITEAKKLTAEGQYKESEEKLATIPVSDLGKPHYSIVKETVEKLNNQNNEGLKRQEEVAVE = -0.02

So what's the measured soluble fraction (log2) for this one? "HMPGRKTTFEERLSIIEDLIKHDVNYSWAVDKYHVSYQQVYGWYQKYRKSGNDPQSLRDRRGK"
-2.7

// query soluble fraction (log2) value for entry "HMGDTLEIVVIYSNKQKAEEAVNNLKGKFEDLGYNFAIITVDTSKITQLAMESSIQYIEFPKSFYFSD"
-1.64

====

test: soluble fraction after stress (log2 fold change); higher = more stays soluble; pooled small domains, quantitative proteomics; details: stress: 50 degC
Binning scheme for soluble fraction (log2): lower (below -0.7), middle (-0.7 to below -0.1), upper (-0.1 or more)

• HMKPAFTPYVVKVTADVLNVRSGPGTNYGITTKVKKGEAYTIVEEKNGWGKLKSGAGWISLEYTVK = middle

Kindly state the category for this sequence: "HMKVNMIIVMKPGARETDIQEVSNVLKSAGLGVHISKGTERTIIGVIGDKRLLNGIPLDLMHGVDKLVPIM"
upper

Pick a category. Item: "HMARLAGVDLPREKRIEIGLTYIYGIGLARSQEILKKAGINPDIRVKDLTDEQEQAIRNAMDGYIVEGDL"
middle

Could you tell me which band "HMTNTDALINRAAKVVEEINPDKNTGRVSIDGDLWRAKSSSGELIEQNKQVIVISIESTIVTVKI" belongs to?
middle

Please let me know in which category the item "HMIPNPMTDRELEVLGLLASGKTYKQVARALDLSQSTVRNHLHNVYHKLNVVDRAQAVIVSRENGW" belongs.
middle

Into which category would you place "HMYIENIGDYLKSHDIKPSYQRIKVFEYLMQHKNHPTVDMIYKSLVDEIPTLSKTTVYNTLNLFIEKQI" ?
lower

State the class of the sequence shown: "HMEDLGYVKVASQTAAIRKSAAVQAGQIGTVHEGETYRYLGEEEGWYLVEYNGQKAYISWDDGEL"
middle

Please classify: "HMTKGFSIQDISLSKSTMTFLQQNKITDLASLLSMSKSQIEGMKGFKPKMIQEIEKNLDKVGLVLAQD"
upper

Bin this entry: "HMNIDQAFISDLERMIMPDISKYELMDIISIMENSGFTIKVEGTGNEVRQVIKPGSKLKKGQKIKIKL"
lower

Form: Item = "HMWSAREQVVNSLREAILTSELKAGERLVLSDLSARLGVSVTPIREALQSLEREGLVQLMPHQEAVVV" ; Class = ?
upper

Bin? "HMNELVEATITTQTGRLDKVLTTIFPQYSRSQIQQLLEQGNILVNETLQKGKYKVKAGDKISLTEPAIKE"
upper

For "HMSGLGELTPRELEVLELMAQGLSNSQIAGRLFLSGAAVAKHVSSIFSKLGFEPGDENRRVRAILAFLNR" , which soluble fraction (log2) bin applies?
middle

Given "HMRTVEQFQIRKIYAISNALGISDSRADEDELHVLVSGLTGKDSIKELTYREASVVIERLEELQ" , name the class its soluble fraction (log2) places it in.
lower

Hey, which category is "HMKETLSINSTDFEVRRSSRRKRISVGFDTGTETFFIAAPTKLAGTDILRILGPQISRLMDRLT" in, do you know?
lower

Sort into band: "HMPLDPFVVDALRDEIINTIKQHEPRVDLQKVQVQPIYTQNRVNISVQYKIVGLPIVEDITFVLQRP"
upper

Entry "HMNALNDLESKIFEEVVKAPEIIMNMTIREFASTVHASPTTIVRMTHKLGFSGWNELKTYLQKQKHQIS" belongs to which category?
lower

====

test: soluble fraction after stress (log2 fold change); higher = more stays soluble; pooled small domains, quantitative proteomics; settings: stress: 50 degC
Cut-off -0.09 on soluble fraction (log2), inclusive. At or above means y; below means n.

• HMSDFSSNLRRLRKRAGLSQDALAEKLSVARQTVSSWERGNSYPDLDMLVRISDALATDPNELLYPN = y

Given "HMSRYLLPYAFARTQQVLLEEKSGELTLWMHSGSNLGGISEVTRKYAVQHVTHEPMDALLNRISSAYAN" , state whether its soluble fraction (log2) is at least -0.09.
n

Quick check, soluble fraction (log2) >= -0.09? "HMREFQVMKQELQEMVHQRLDMSTELSDEAIGDVIDEVIMEKSRNMYISSVTKLTLRQELFNAIR"
n

Textbook exercise: given the entry "HMDGEMRRKRILQLLSEQTKPLSGTALAKQFGVSRQVIVQDIALLKSKEPAIISTYRGYVLGR" , state whether its soluble fraction (log2) is greater than or equal to -0.09.
n

Kindly determine if soluble fraction (log2) recorded for "HMDGFAEFWSAYPKKVGKGAAEASWRKHRPPLQTVLDAVKRQAESDQWRKDGGQFIPNPATWLNQKRWEDD" is above or exactly -0.09.
y

Entry "HMDIVLPFSFAKRHGVVLSERQGETELLYLKGLPVRVLAEARRVLRQEFTVRQVEQAVFDKALSESYQN" : is its soluble fraction (log2) no less than -0.09?
n

Check the entry "HMPSLSAILHDARVAAGLSMRQASAASGLSIGFISMLEQGKVQDISLQRLGRLVTAYDLEPLDVIEAAG" : does soluble fraction (log2) equal or exceed -0.09?
n

Could you verify whether the entry "HMVVLPPTEDAPEWAQVFDRLGRPESADGYKLPVPEGADPAFAKLASAKMHELGLSAKQGAALAAWWNEQA" shows soluble fraction (log2) of no less than -0.09?
y

# bool: soluble fraction (log2) of "HMDPDARQDAEVWLLDFLSAGPRTAQEIFTAARVEGHTRVTVKRAKATAGIQSVKQDFDGPWVWVLPGSG" >= -0.09
n

Decide: soluble fraction (log2) of "HMWNKGETKIPTQAQNELIKRRQAGATWTSLSEWLKATYGIDIHRTNIQRWYDKEVYLDQEN" >= -0.09?
n

Entry "HMFSSVSVPAELSNQRFDKVVAELTPDLSRSKIKQLILLGKVLLNGEVTPPKQKVETGDEIEIFYTRQIE" : is its soluble fraction (log2) no less than -0.09?
n

Decide: soluble fraction (log2) of "HMDTIRINSGSTVKEVAEYLGIPVPEVIKKLMSMGELATLTKTLSDDHIEVLAEEFEKKIKIVHVGEEAD" >= -0.09?
y

soluble fraction (log2) >= -0.09 for "HMDTIVVAARSIQARQTLTESDLRVEEQEIGAASDKYYTDIAEAVGLVSSRRLSPGQPILRTM" ?
n

Evaluate "HMPVNGEFIERIKVMVLENKAKGKKERLTKTRMHQLLQEEGYKGSYSAFTHQVRIIEEELGVNQKEAH" : soluble fraction (log2) at minimum -0.09?
y

// inclusive: soluble fraction (log2) at least -0.09? input: "HMSMNSWFVEKERDNTRIDKFLNEQMADISRSYIQKLIKDDLVTVDLRPVKANYKVKEGDRVEVTLPEPV"
y

Evaluate "HMAPVVAILTRQLPLPQAQQLAGQTALVRVVKGGPGNEAELEFAGQNIQVKLPPGRQLTAGEMVTVAFALS" : soluble fraction (log2) at minimum -0.09?
y

Exam item: decide whether the reported soluble fraction (log2) for "HMETQAGELQDAIRDAIAALPPRTREVFLMSRERNLRYGEIAEALGISVKAVEANMSRALRQLREKLSPFL" is at least -0.09.
n

Evaluate "HMDSAMMDLVMRVQLALFTKGYDVGIIDGKIGPKTRAQIKRYQSDNRLSSTGTLTTSLLTSLGIQ" : soluble fraction (log2) at minimum -0.09?
n

Check this sequence for soluble fraction (log2) at or above -0.09: "HMGLAGVQSDVKVSFDGDLLVVTSDIARSFNLFAVDGRLIRSVNLIAGRNEIRGLERGFYLAEKQKIFV"
n

Given the entry "HMPKNVEVPNVVGLSLPMAKLRLTQLGLHIVVRDSVWSETGQPNTILDQDPQPGKKIKPESTVYVKVN" , answer whether its soluble fraction (log2) meets or surpasses -0.09.
n

Would you say "HMRGIPEEVADVAIQWVARLDSNEISDADRAAFFAWLDASPINRWAYNDISESWAKLSILNEMGH" shows soluble fraction (log2) at minimum -0.09?
n

hey, is soluble fraction (log2) for this one >= -0.09? "HMQWGKVRRLPSGRYQASYVHKGTRYTAPETYTVQGRAHGWIESERRLIVTDTWTPPDTRPS"
n

Determine whether measured soluble fraction (log2) meets or exceeds -0.09 for "HMNGKTIEVPDITEKSIAEAQLILNQKKLRYNVVDSTRFDPAYLPFSVLTQEPEAGDEVKKNRTIYITLNP"
y
